Where these numbers come from: patent US20250333496A1

Target: T1, human IL-6 (mature hIL-6) (human, UniProt P05231 30-212)
T1 construct: also called the antigen
T1 sequence (P05231 30-212): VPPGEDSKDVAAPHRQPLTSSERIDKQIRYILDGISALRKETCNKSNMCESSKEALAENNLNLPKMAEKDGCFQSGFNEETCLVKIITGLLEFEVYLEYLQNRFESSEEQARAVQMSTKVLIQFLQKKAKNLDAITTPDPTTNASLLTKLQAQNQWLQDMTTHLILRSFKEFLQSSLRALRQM
Assay: SPR (format not stated)
measuredProperty: pKd
Give only the number. pKd is defined as minus log10 of concentration in molar units.

Illustrative cases are given below, each with its answer.
{"binder": "Polypeptide_17 (VHH, VHH_2.17 with C-terminal His tag extension E1; also called [VHH_2.17]-E1) VHH: QVQLVESGGGLVQAGGSLRLSCTVSGRTFSTYAMGWFRQAPGKEREFVADINWNSDNIWYADSVKGRFTISRDNAKNVMYLQMNSLKPEDTAVYYCAADSYGVGGGKEEYYDSWGQGTQVTVSS", "number": 9.59}
{"binder": "Polypeptide_35 (VHH, VHH_1.10 with C-terminal His tag extension E1; also called [VHH_1.10]-E1) VHH: QVQLVESGGGLVQAGGSLRLSCTASGGTFGEYAMAWFRQAPGKEREFVTDIGESGGTWYADSVKGRFTISRDNAKNTVYLQMNSLRPEDTAVYYCAADSYGVGGGAERYYDSWGQGTQVTVSS", "number": 12.00}
{"binder": "Polypeptide_13 (VHH, VHH_2.13 with C-terminal His tag extension E1; also called [VHH_2.13]-E1) VHH: EVQLVESGGGLVQAGGPLRLSCTVSGRTFSTYAMGWFRQAPGKEREFVADINWNSDNIWYADSVKGRFTISRDNAKNVMYLQMNSLKPEDTAVYYCAADSYGVGGGKEEYYDSWGQGTQVTVSS", "number": 12.00}
{"binder": "Polypeptide_18 (VHH, VHH_1.16 with C-terminal His tag extension E1; also called [VHH_1.16]-E1) VHH: EVQLVESGGGLVQPGGSLRLSCAASGFTFSNYWMYWVRQAPGKGLEWVSGINTGGSTPDYADSVKGRFAISRDNAKNTLYLQMNSLRPEDTAVYYCAADTPRVFRLDHYSPLGQGTQVTVSS", "number": 9.15}
{"binder": "Polypeptide_3 (VHH, VHH_2.3 with C-terminal His tag extension E1; also called [VHH_2.3]-E1) VHH: QVQLQESGGGLVQAGGSLRLSCTTSGRTFSSYAMGWFRQAPGKEREFVADIGENADNRWYAHSVKGRFTISRDNAKNTVYLQMNSLKPEDTAVYYCAADRYGVGGGAQGYYDSWGQGTQVTVSS", "number": 9.06}

Lab note: Polypeptide_4 (VHH, VHH_2.4 with C-terminal His tag extension E1; also called [VHH_2.4]-E1) VHH: QVQLQESGGGLVQAGGSLRLSCTVSGRTFSTYAMGWFRQAPGKEREFVADINWNSDNLWYADSVKGRFTISRDNAKNTMYLQMNSLKPEDTAVYYCAVDSYGVGGGKPEYYDSWGQGTQVTVSS gave pKd of 8.84

Lab note: Polypeptide_1 (VHH, VHH_2.1 with C-terminal His tag extension E1; also called [VHH_2.1]-E1) VHH: QVQLVESGGDLVQPGGSLRLSCTTSGRTFSSYAMGWFRQAPGKEREFVADIGENADNRWYAHSVKGRFTISRDNAKNTVYLQMNSLKPEDTAVYYCAADRYGVGGGAQGYYDSWGQGTQVTVSS gave pKd of 9.20

Lab note: Polypeptide_33 (VHH, VHH_1.9 with C-terminal His tag extension E1; also called [VHH_1.9]-E1) VHH: EVQLVESGGGLVQPGGSLRLSCTTSGRTFSSYAVGWFRQAPGKEREFVADIGENADNTWYAHSVKGRFTISRDNAKNTVYLQMNSLKPEDTAVYYCAADSYGVGGGAQGYYDSWGQGTQVTVSS gave pKd of 9.45

Lab note: Polypeptide_5 (VHH, VHH_2.5 with C-terminal His tag extension E1; also called [VHH_2.5]-E1) VHH: QLQLVESGGGLVQPGGSLRLSCAASGFTFSNYWMYWVRQAPGKGLEWVSGINTGGSTPDYADSVKGRFTISRDNAKNTLYLQMNSLRPEDTAVYYCAADTPRVFRLDHYSPLGQGTQVTVSS gave pKd of 9.16

Lab note: Polypeptide_2 (VHH, VHH_2.2 with C-terminal His tag extension E1; also called [VHH_2.2]-E1) VHH: EVQLVESGGGLVQPGGSLRLSCAASGFTFSNYWMYWVRQAPGKGLEWVSGINTGGSTPDYADSVKDRFTISRDNAKNTLYLQMNSLRPADTAVYYCAADTPRSFRLNHYAPLGQGTQVTVSS gave pKd of 8.88
